From: paper PMC6753139

# System Under Test: TRIM66_(965-1160) N969A (human, UniProt O15016 965-1160, N969A)
# Sequence (O15016 1100-1295 N1104A): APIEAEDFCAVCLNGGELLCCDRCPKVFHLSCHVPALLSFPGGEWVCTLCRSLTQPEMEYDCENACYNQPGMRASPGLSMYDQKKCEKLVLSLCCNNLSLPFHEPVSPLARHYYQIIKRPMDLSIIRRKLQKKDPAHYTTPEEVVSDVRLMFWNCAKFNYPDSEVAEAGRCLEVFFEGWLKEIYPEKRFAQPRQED
# Procedure Summary: ITC
Quantity Kind: Kd (µM)

Binder | Quantity Kind | Scale Unit | Reported Measurement
ARTKQTARKSTG (peptide, UniProt P68431 2-13, looked up, histone H3, residues 1-12, unmodified; also called unH3_(1-12); unmodified H3_(1-12); source: synthetic peptide (GL Biochem, Shanghai)) [H3_(1-12) peptide, unmodified] | Kd | µM | 72.6
